Numbers sourced from patent US8093389B2.

- ASSAYED TARGET: human ACC1 (Homo sapiens, UniProt Q13085)
- ASSAY PROCEDURE: Acetyl CoA carboxylase (ACC) activity inhibition test, human ACC1
- Assay type: biochemical
- CONDITION SET: 1 μmol/liter test compound; read-out: Inhibition (%) by 1 μmol/liter Chemical, human ACC1
Where a name gives a salt, the structure may show the parent alone.
QUANTITY KIND: inhibition at 1 µM

COMPOUND: COc1cc(C(=O)N2CCC3(CC2)CC(=O)c2cc(-c4cccc(C(=O)O)c4)ccc2O3)cc2c1ccn2C1CC1
OBS VALUE: 99%

COMPOUND: CCOc1cc(C(=O)N2CCC3(CC2)CC(=O)c2cc(-c4nnn[nH]4)ccc2O3)cc2c(C3CC3)noc12
OBS VALUE: 97%

COMPOUND: CCn1ccc2c(OCCO)cc(C(=O)N3CCC4(CC3)CC(=O)c3cc(-c5nnn[nH]5)ccc3O4)cc21
OBS VALUE: 96%

COMPOUND: CCOc1cc(C(=O)N2CCC3(CC2)CC(=O)c2cc(-c4nnn[nH]4)ccc2O3)cc2c1c(C)cn2C1CC1
OBS VALUE: 98%

COMPOUND: COc1cc(C(=O)N2CCC3(CC2)CC(=O)c2cc(-c4cncc(C(=O)O)c4)ccc2O3)cc2c1c(Cl)cn2C1CC1 [Example 24, sodium salt]
OBS VALUE: 99%

COMPOUND: CCn1ncc2c(OC)cc(C(=O)N3CCC4(CC3)CC(=O)c3cc(-c5nnn[nH]5)ccc3O4)cc21
OBS VALUE: 93%

COMPOUND: CCn1cnc2c(OC)cc(C(=O)N3CCC4(CC3)CC(=O)c3cc(-c5nnn[nH]5)ccc3O4)cc21
OBS VALUE: 91%

COMPOUND: COc1cc(C(=O)N2CCC3(CC2)CC(=O)c2cc(-c4cncc(C(=O)O)c4)ccc2O3)cc2c1ccn2C1CC1 [Example 7, sodium salt]
OBS VALUE: 100%

COMPOUND: CCOc1cc(C(=O)N2CCC3(CC2)CC(=O)c2cc(-c4cncc(C(=O)O)c4)ccc2O3)cc2c1c(C)cn2C1CC1
OBS VALUE: 100%

COMPOUND: O=C1CC2(CCN(C(=O)c3cc(OCCO)c4ccn(C5CC5)c4c3)CC2)Oc2ccc(-c3nnn[nH]3)cc21
OBS VALUE: 99%

COMPOUND: COc1cc(C(=O)N2CCC3(CC2)CC(=O)c2cc(-c4nnn[nH]4)ccc2O3)cc2c1ccn2OC
OBS VALUE: 99%

COMPOUND: CCOc1cc(C(=O)N2CCC3(CC2)CC(=O)c2cc(-c4nnn[nH]4)ccc2O3)cc2c1ccn2C1CC1
OBS VALUE: 100%

COMPOUND: CCn1ccc2c(OC)cc(C(=O)N3CCC4(CC3)CC(=O)c3cc(-c5nnn[nH]5)ccc3O4)cc21
OBS VALUE: 99%

COMPOUND: COc1cc(C(=O)N2CCC3(CC2)CC(=O)c2cc(-c4cncc(C(=O)O)c4)ccc2O3)cc2c1c(C)cn2C1CC1 [Example 23, sodium salt]
OBS VALUE: 99%

###

- ASSAYED TARGET: human ACC2 (Homo sapiens, UniProt O00763)
- Sequence (O00763 whole entry): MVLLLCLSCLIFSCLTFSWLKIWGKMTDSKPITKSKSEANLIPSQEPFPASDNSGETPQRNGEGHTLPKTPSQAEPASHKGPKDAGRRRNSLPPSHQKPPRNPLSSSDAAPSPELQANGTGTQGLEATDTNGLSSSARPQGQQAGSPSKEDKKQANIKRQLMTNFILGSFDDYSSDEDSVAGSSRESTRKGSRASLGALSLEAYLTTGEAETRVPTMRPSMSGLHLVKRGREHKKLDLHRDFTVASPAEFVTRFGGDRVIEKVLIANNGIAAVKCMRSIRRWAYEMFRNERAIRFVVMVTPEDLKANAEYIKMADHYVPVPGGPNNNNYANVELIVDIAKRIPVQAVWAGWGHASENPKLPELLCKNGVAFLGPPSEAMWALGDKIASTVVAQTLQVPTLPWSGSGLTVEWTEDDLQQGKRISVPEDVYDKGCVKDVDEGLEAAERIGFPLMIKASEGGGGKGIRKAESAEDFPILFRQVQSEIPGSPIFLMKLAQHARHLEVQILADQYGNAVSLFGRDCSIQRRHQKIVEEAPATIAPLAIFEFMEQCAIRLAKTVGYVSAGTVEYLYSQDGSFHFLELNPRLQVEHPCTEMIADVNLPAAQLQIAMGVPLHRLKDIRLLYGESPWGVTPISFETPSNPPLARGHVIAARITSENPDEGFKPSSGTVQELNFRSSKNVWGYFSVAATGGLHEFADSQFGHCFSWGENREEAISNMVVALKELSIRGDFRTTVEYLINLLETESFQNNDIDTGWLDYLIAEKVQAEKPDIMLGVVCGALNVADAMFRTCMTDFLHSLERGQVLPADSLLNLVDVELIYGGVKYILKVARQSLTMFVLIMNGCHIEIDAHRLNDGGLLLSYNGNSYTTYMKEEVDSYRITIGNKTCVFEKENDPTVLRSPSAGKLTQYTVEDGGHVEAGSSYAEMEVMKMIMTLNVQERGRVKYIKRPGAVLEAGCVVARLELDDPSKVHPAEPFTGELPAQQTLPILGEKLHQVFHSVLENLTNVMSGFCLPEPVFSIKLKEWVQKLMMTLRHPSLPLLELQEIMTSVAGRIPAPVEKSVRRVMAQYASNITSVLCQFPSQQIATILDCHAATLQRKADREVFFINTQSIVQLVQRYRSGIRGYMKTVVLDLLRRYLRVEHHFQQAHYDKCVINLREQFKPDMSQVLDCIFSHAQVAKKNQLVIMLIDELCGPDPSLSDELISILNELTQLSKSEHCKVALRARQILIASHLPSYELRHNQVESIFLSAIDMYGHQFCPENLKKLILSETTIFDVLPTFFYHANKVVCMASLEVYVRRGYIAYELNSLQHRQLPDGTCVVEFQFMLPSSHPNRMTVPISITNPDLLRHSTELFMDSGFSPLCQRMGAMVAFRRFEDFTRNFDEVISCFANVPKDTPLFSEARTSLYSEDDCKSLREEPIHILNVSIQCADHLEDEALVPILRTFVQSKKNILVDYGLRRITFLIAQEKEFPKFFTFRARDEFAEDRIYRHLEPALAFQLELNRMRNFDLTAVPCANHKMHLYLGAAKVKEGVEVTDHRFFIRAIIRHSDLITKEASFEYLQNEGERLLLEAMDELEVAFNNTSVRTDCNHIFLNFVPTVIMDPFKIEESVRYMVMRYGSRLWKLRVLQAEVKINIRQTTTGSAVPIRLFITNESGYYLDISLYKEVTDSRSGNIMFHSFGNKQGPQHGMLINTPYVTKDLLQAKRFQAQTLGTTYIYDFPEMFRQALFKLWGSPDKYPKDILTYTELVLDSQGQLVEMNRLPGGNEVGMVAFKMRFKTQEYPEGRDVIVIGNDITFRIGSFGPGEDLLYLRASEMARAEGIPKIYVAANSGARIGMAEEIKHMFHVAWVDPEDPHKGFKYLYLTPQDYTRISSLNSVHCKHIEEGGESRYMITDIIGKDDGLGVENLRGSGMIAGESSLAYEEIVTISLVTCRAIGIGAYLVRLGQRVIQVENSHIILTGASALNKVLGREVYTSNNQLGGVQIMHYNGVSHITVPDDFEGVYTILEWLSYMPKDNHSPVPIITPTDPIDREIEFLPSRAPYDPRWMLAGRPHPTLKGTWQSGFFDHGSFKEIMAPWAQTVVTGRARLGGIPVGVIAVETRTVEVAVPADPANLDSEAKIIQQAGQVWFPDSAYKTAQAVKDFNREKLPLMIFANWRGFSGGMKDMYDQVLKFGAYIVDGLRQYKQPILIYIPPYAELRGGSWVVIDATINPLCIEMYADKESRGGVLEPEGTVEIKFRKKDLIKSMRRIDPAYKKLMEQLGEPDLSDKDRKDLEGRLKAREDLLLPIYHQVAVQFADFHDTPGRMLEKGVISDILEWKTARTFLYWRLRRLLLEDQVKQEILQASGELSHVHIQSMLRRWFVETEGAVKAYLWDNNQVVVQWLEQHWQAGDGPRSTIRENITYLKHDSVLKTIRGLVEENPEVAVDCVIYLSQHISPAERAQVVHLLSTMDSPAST
- ASSAY PROCEDURE: Acetyl CoA carboxylase (ACC) activity inhibition test, human ACC2
- Assay type: biochemical
- CONDITION SET: 1 μmol/liter test compound; read-out: Inhibition (%) by 1 μmol/liter Chemical, human ACC2
Counter-ions that a name gives are not always drawn.
Below, each of the compounds is paired with its reported inhibition at 1 µM value.
QUANTITY KIND: inhibition at 1 µM

COMPOUND: COc1cc(C(=O)N2CCC3(CC2)CC(=O)c2cc(-c4cncc(C(=O)O)c4)ccc2O3)cc2c1c(Cl)cn2C1CC1 [Example 24, sodium salt]
ASSAYED TARGET: human ACC2 (Homo sapiens, UniProt O00763)
QUANTITY KIND: inhibition at 1 µM
OBS VALUE: 100%
--
COMPOUND: CCOc1cc(C(=O)N2CCC3(CC2)CC(=O)c2cc(-c4nnn[nH]4)ccc2O3)cc2c1ccn2C1CC1 [Example 13]
ASSAYED TARGET: human ACC2 (Homo sapiens, UniProt O00763)
QUANTITY KIND: inhibition at 1 µM
OBS VALUE: 99%
--
COMPOUND: COc1cc(C(=O)N2CCC3(CC2)CC(=O)c2cc(-c4nnn[nH]4)ccc2O3)cc2c1ccn2C1CC1 [Example 11]
ASSAYED TARGET: human ACC2 (Homo sapiens, UniProt O00763)
QUANTITY KIND: inhibition at 1 µM
OBS VALUE: 98%
--
COMPOUND: COc1cc(C(=O)N2CCC3(CC2)CC(=O)c2cc(-c4nnn[nH]4)ccc2O3)cn2c(C3CC3)cnc12 [Example 2]
ASSAYED TARGET: human ACC2 (Homo sapiens, UniProt O00763)
QUANTITY KIND: inhibition at 1 µM
OBS VALUE: 93%
--
COMPOUND: O=C1CC2(CCN(C(=O)c3cc(OCCO)c4ccn(C5CC5)c4c3)CC2)Oc2ccc(-c3nnn[nH]3)cc21 [Example 36]
ASSAYED TARGET: human ACC2 (Homo sapiens, UniProt O00763)
QUANTITY KIND: inhibition at 1 µM
OBS VALUE: 99%
--
COMPOUND: CCOc1cc(C(=O)N2CCC3(CC2)CC(=O)c2cc(-c4nnn[nH]4)ccc2O3)cc2c1c(C)cn2C1CC1 [Example 17]
ASSAYED TARGET: human ACC2 (Homo sapiens, UniProt O00763)
QUANTITY KIND: inhibition at 1 µM
OBS VALUE: 99%
--
COMPOUND: CCn1ccc2c(OCCO)cc(C(=O)N3CCC4(CC3)CC(=O)c3cc(-c5nnn[nH]5)ccc3O4)cc21 [Example 4]
ASSAYED TARGET: human ACC2 (Homo sapiens, UniProt O00763)
QUANTITY KIND: inhibition at 1 µM
OBS VALUE: 97%
--
COMPOUND: COc1cc(C(=O)N2CCC3(CC2)CC(=O)c2cc(-c4cncc(C(=O)O)c4)ccc2O3)cc2c1c(C)cn2C1CC1 [Example 23, sodium salt]
ASSAYED TARGET: human ACC2 (Homo sapiens, UniProt O00763)
QUANTITY KIND: inhibition at 1 µM
OBS VALUE: 98%
